B1: ZNF649 (parent)
chain: LVAHQRYHTGKTPFVCPECGQPCS

Variants of: B1
testSummary: protein stability index of a GFP-peptide fusion (GPS, HEK-293T) (PSI 1-6); higher = more stable;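 note: lentivirally expressed fusions sorted by FACS into six bins by GFP to DsRed ratio, PSI derived from sequencing read proportions per bin multiplied by bin number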
runParameters: c terminus: a fixed tail appended
We begin with a simple list: items and their reported protein stability index.

[
  {
    "variantDescriptor": "C19T",
    "protein stability index": 3.26
  },
  {
    "variantDescriptor": "H8E",
    "protein stability index": 3.13
  },
  {
    "variantDescriptor": "H4L",
    "protein stability index": 1.81
  }
]
